For each entry below, report its GI50 value.
# Tested on: SK-MEL-28
# ASSAY_SUMMARY: NCI tumour cell line growth inhibition, 48 h
Calls of active or inactive are those of the source. No stated cut-off is given here; in the data, active = GI50 up to about 1.1 µM and inactive = higher.

Request: Quick one: GI50 of C[C@H]1CC(=O)C[C@@H]2CC[C@@H]3[C@H](CC[C@]4(C)C(OC(=O)c5cccc6c(=O)c7ccccc7[nH]c56)CC[C@@H]34)[C@]21C (stereo partly drawn) ?
Response: 38.2 µM (inactive)

Request: Please report the recorded GI50 for COC(=O)/C(=N\Nc1nc(S)nn1N)C(C#N)c1ccc(Cl)cc1 (stereo not drawn) .
Response: > 100 µM (inactive)

Request: Recorded GI50 of C=CCSc1nnc2cc(CN3CCCC3)c(-c3ccc(Cl)cc3)nn12 , please.
Response: 20 µM (inactive)

Request: Dear colleague, I am looking for the recorded GI50 of the following compound: CC1=NN(c2nc(N)nc(/C(C#N)=C\C3COc4ccccc4C3=O)n2)C(C)(C)C1 (stereo not drawn)
Response: 21.6 µM (inactive)

Request: Requested field: GI50. Item: COc1nc2c(c(=O)[nH]1)N=C(c1ccc(Cl)cc1)CC(c1ccccc1)N2 (stereo not drawn)
Response: 17.7 µM (inactive)

Request: Give the measured GI50 of CC1CCC2(OCCO2)[C@]2(C)CC(O)C(=O)C=C12 (stereo partly drawn) .
Response: > 100 µM (inactive)

Request: Given the entry O=S(OC12CC3CC(CC(C3)C1)C2)c1cc(Cl)cc(Cl)c1OCc1ccccc1 (stereo not drawn) , report its measured GI50.
Response: > 100 µM (inactive)

Request: # input compound: COc1ccc(/C=C2/SC(c3c(O)ccc4ccccc34)N(NC(=O)CCCCCCCCC(=O)NN3C(=O)/C(=C\c4ccc(OC)c(OC)c4)SC3c3c(O)ccc4ccccc34)C2=O)cc1OC (stereo not drawn) ; wanted: its GI50
Response: 2.98 µM (inactive)

----------
For each record, write down the corresponding GI50.
# Test system: ACHN
# ASSAY_SUMMARY: NCI tumour cell line growth inhibition, 48 h
The source made the active and inactive calls. Cut-off read from the data, not from the text of the source: active = GI50 up to about 1.1 µM and inactive = higher.

Request: Need GI50, item N#CC1CCCCOCCOCCOCCOCCOCCCCCC1=O (stereo unspecified)
Response: > 100 µM (inactive)

Request: Entry COc1cc(C=O)cc(/C=N/c2ccc(Br)cc2)c1O has what GI50?
Response: 2.53 µM (inactive)

Request: Entry [O-][S+]1c2ccccc2N=C(c2ccc(Cl)cc2)CC1c1cccs1 (stereo unspecified) has what GI50?
Response: 28.2 µM (inactive)

Request: // lookup GI50 for CC(NC1=NCCO1)c1ccco1 (stereo unspecified)
Response: > 100 µM (inactive)

Request: Need GI50 of CC1=CC(=O)c2cccc(NC3=NCCO3)c21 , thanks.
Response: 86.7 µM (inactive)

Request: Look at this compound and give its reported GI50. COC(=O)C1=C(OC(=O)/C=C/c2ccc(Cl)cc2)C(C(=O)OC)[C@]2(O)[C@@H](C(=O)OC)[C@H]1C[C@@H](c1ccccc1)[C@@H]2C(=O)OC (stereo partly specified)
Response: 4.74 µM (inactive)

Request: Which GI50 value belongs to COC(=O)/C(=N\Nc1nc(S)nn1N)C(C#N)c1ccc(Cl)cc1 (stereo unspecified) ?
Response: > 100 µM (inactive)

Request: Need GI50 of CCC1(CC)C(=O)OC(=O)C1(CC)CC , thanks.
Response: > 100 µM (inactive)

Request: Which GI50 value belongs to COc1cccc(C2c3cc4c(cc3OC(N3CCCCC3)C2C)OCO4)c1O (stereo unspecified) ?
Response: 6.55 µM (inactive)

Request: Looking for the measured GI50 of C=COC(=O)N1C2CCCC(Cl)(C(C)=O)C1CC2 (stereo unspecified) , can you help?
Response: > 100 µM (inactive)

Request: Looking for the measured GI50 of c1ccc(/N=C2\c3ccccc3CN2c2ccccc2)cc1 , can you help?
Response: > 100 µM (inactive)

----------
# System: UACC-257
# ASSAY_SUMMARY: NCI tumour cell line growth inhibition, 48 h
The source made the active and inactive calls. Rule as the data show it: active = GI50 up to about 1.1 µM and inactive = higher.
TEST_READOUT: GI50

Request: For CCN1CCC(O)(c2ccc(Oc3ccc(C)cc3)cc2)C(C(=O)c2ccc(Oc3ccc(C)cc3)cc2)C1 (stereo not given) , what is its reported GI50?
Response: 13.2 µM (inactive)

Request: State the recorded GI50 for this entry: C=C(Br)C(C)(Cl)CCC(Br)C(C)(C)Cl (stereo not given)
Response: 28.9 µM (inactive)

Request: What GI50 value was documented for this molecule, C[C@]12CC[C@H]3[C@@H](CCC4=C(Br)C(=O)C=C[C@@]43O)[C@@H]1CCC2=O ?
Response: 16.9 µM (inactive)

Request: State the recorded GI50 for this entry: Cc1cn([C@H]2[C@@H](CO)C[C@H]2O)c(=O)[nH]c1=O
Response: 50.4 µM (inactive)

Request: For CCOC(=O)CC1=Nc2ccccc2SC1 , what is its reported GI50?
Response: > 100 µM (inactive)

----------
# Tested on: Malme-3M
# ASSAY_SUMMARY: NCI tumour cell line growth inhibition, 48 h
The source made the active and inactive calls. No stated cut-off is given here; in the data, active = GI50 up to about 1.1 µM and inactive = higher.
Please provide measured GI50 for the entries that follow.

Request: Quick one: GI50 for COC(=O)C1=C(OC(=O)/C=C/c2ccc(Cl)cc2)C(C(=O)OC)[C@]2(O)[C@@H](C(=O)OC)[C@H]1C[C@@H](c1ccccc1)[C@@H]2C(=O)OC (some centres not stated) ?
Response: 4.94 µM (inactive)

Request: Form field: reported GI50 of Cc1c2c(n3c(nc4ccccc43)c1C#N)SCC2
Response: > 10 µM (inactive)

Request: What value of measured GI50 is listed for CC(=O)OCC1OC(n2c(-c3ccccc3)c(/N=N/c3ccc(C)cc3)c(C)c(C#N)c2=S)C(OC(C)=O)C(OC(C)=O)C1OC(C)=O (configuration not stated) ?
Response: > 10 µM (inactive)

Request: Would you kindly share the measured GI50 for COc1ccc(NC(=O)CC/C(CC(=O)c2ccco2)=N/NC(=O)C(N)=O)cc1 ?
Response: 98.9 µM (inactive)

Request: Which GI50 is listed for O=S(=O)(Nc1ccccc1)c1ccc(-c2c3nc(c(-c4ccc(S(=O)(=O)Nc5ccccc5)cc4)c4ccc([nH]4)c(-c4ccc(S(=O)(=O)Nc5ccccc5)cc4)c4nc(c(-c5ccc(S(=O)(=O)Nc6ccccc6)cc5)c5ccc2[nH]5)C=C4)C=C3)cc1 ?
Response: > 31.6 µM (inactive)

Request: // lookup GI50 for O=[N+]([O-])c1nccn1COCCI
Response: > 100 µM (inactive)

Request: # query: GI50 of entry Cc1ccc(C(=O)N/N=C2/C(=O)c3c4ccccc4cc4cccc2c34)cc1
Response: 18.8 µM (inactive)

----------
For each of the compounds below, state its GI50.
# Tested on: K562
# ASSAY_SUMMARY: NCI tumour cell line growth inhibition, 48 h
Calls of active or inactive are those of the source. Rule as the data show it: active = GI50 up to about 1.1 µM and inactive = higher.

Request: # get_value(readout='GI50', item= CN(C)CCCNC(=O)c1cc(NC(=O)c2cc(NS(=O)(=O)c3ccc4c(c3)C(=O)c3ccccc3C4=O)cn2C)cn1C )
Response: 52.6 µM (inactive)

Request: Data request, read-out GI50, for O=c1cc(-c2ccccc2)nc2[nH]ccn12
Response: > 10 µM (inactive)

Request: Returns the measured GI50 for the input compound. Input: C=C1C(=O)OC2C1C(OC(=O)/C(C)=C/C)CC(O)(CCl)C1C(OC(C)=O)C=C(C)C21O (stereo not given)
Response: 7.8 µM (inactive)

Request: Param item = Brc1nc2c3ccccc3ncn2c1Br ; retrieve measured GI50.
Response: 31.3 µM (inactive)

Request: Entry Cc1ccc(C(=O)N/N=C2/C(=O)c3c4ccccc4cc4cccc2c34)cc1 has what GI50?
Response: > 21.1 µM (inactive)

Request: State the recorded GI50 for this entry: CC(C)CC(=O)NC(Nc1ccc(S(=O)(=O)Nc2ncccn2)cc1)(C(F)(F)F)C(F)(F)F
Response: > 100 µM (inactive)

Request: Name the recorded GI50 for OCc1ccc2c(c1)CC1(Cc3ccc(/C=N/O)cc3C1)C2 (stereo not given) .
Response: 1.8 µM (inactive)

Request: Which GI50 reading was recorded for the compound C/C(=N\NC(=S)N1CC2CCC(CC2)C1)c1cccc(C)n1 ?
Response: < 0.0112 µM (active)

Request: What does the record list as GI50 for COCC1C(=O)c2cc3c(cc2C12C=CC1(C=C2)OCCO1)OCO3 (stereo not given) ?
Response: 2 µM (inactive)

Request: GI50 for NC(CSSCC(N)Cc1ccccc1)Cc1ccccc1 (stereo not given) ?
Response: 33.4 µM (inactive)

----------
The next entries give measured GI50 for HCT-15.
Write it as a number; the unit µM goes unstated.

Request: Return GI50 measured with HCT-15 given this compound: NC(CSSCC(N)Cc1ccccc1)Cc1ccccc1 (stereo unspecified)
Response: 66.7

Request: What is its GI50 for HCT-15? Entry: FC(F)(F)c1ccc2c(c1)N(CCCNCCN1CCOCC1)c1ccccc1S2
Response: 6.52

Request: Requested read-out GI50, target or system HCT-15, entry CCCCS(=O)(=O)Nc1ccc(Nc2c3ccccc3nc3ccccc23)c(OC)c1
Response: 1.71

Request: Field: GI50 (HCT-15). Entry: CC(=O)NC1=C(C)C(=O)c2c(nc3n2CC[C@H]3OC(C)=O)C1=O
Response: 3.58
